- target_system: neuramimidase-treated human suPAR (soluble recombinant uPAR) (Homo sapiens, UniProt Q03405)
- Construct: A soluble recombinant variant of human uPAR (suPAR) was expressed in Chinese hamster ovary (dhfr) cells; made in house; host or cells: Chinese hamster ovary (dhfr) cells
- Sequence (Q03405 23-305 limits assumed): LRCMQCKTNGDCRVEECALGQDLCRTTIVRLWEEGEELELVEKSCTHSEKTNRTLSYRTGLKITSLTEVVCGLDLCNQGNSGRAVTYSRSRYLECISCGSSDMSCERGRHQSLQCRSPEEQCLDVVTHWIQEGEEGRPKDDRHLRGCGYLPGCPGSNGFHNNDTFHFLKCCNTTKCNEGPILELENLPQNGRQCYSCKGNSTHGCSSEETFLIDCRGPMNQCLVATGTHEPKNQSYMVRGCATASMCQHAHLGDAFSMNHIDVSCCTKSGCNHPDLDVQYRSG
- experiment_summary: Biacore Binding Assay (surface plasmon resonance), ligand binding to immobilised suPAR
- condition_set: Biacore, 5° C., immobilised suPAR
I would appreciate it if you labelled entries true when kdiss (dissociation rate constant, off-rate) is 0.003 s⁻¹ or higher, otherwise false.

Consider the worked cases shown below.
- substance: "dChaFSrYLWS (DXFSRYLWS; D-residues; non-natural residues; cyclised or stapled) [AE107]"
  class_name: "true"
- substance: "SLNFSQYLWS (AE68) [reference compound]"
  class_name: "true"
- substance: "dChaFsrYLWs (DXFSRYLWS; not fully specified; D-residues; non-natural residues; cyclised or stapled)"
  class_name: "false"
- substance: "DChaFsRYLWS (DXFSRYLWS; D-residues; non-natural residues; cyclised or stapled) [AE110]"
  class_name: "false"

Then there is this substance:
Ask: Is the recorded value of kdiss (dissociation rate constant, off-rate) equal to or greater than 0.003 s⁻¹ for this substance? DChaFSrYLWS (DXFSRYLWS; D-residues; non-natural residues; cyclised or stapled) [AE106]
Reply: false
